Test: Evaluation of Caco-2 membrane permeability
Format: in vitro ADME
Conditions: human, Caco-2, Without 5 mM lauroyl-L-carnitine Permeability coefficient (Caco-2 Papp)
measurement_type: Papp A→B at 180 min

{"compound": "CC[C@H](C)[C@@H]1NC(=O)[C@H](CC(C)C)N(C)C(=O)CC(C(=O)N2CCOCC2)N(C)C(=O)[C@H](C2CCCC2)N(C)C(=O)C2(CCCC2)NC(=O)[C@@H]2CCCN2C(=O)[C@H](CCc2ccc(C(F)(F)F)c(Cl)c2)NC(=O)CN(C)C(=O)[C@H](Cc2ccc(C)cc2)N(CC)C(=O)[C@@H]2CCN2C(=O)[C@H](C)N(C)C1=O (single isomer, unassigned)", "Papp A→B at 180 min": "0.215 ×10⁻⁶ cm/s"}

Proceed to the following item.
Dear colleague, I am looking for the recorded Papp A→B at 180 min of the following compound: CCCCN1CC(=O)N(C)[C@@H](CC(C)C)C(=O)N[C@@H](Cc2ccc(C(=O)NS(C)(=O)=O)c(OC)c2)C(=O)N(C)[C@@H](CC(C)C)C(=O)N(C)[C@@H](CC(C)C)C(=O)NC(C(=O)N2CCCCC2)CC(=O)NC(CC(C)C)C(=O)N(C)[C@@H](Cc2ccccc2)C(=O)NC(C(C)C)C(=O)N(C)[C@@H](CC(C)C)C(=O)N[C@@H]([C@H](C)O)C1=O (single isomer, unassigned)
0.00921 ×10⁻⁶ cm/s

Where these numbers come from: patent US20250186542A1
